Target: PIK3CA (human) (UniProt P42336)
Sequence (P42336 whole entry, looked up): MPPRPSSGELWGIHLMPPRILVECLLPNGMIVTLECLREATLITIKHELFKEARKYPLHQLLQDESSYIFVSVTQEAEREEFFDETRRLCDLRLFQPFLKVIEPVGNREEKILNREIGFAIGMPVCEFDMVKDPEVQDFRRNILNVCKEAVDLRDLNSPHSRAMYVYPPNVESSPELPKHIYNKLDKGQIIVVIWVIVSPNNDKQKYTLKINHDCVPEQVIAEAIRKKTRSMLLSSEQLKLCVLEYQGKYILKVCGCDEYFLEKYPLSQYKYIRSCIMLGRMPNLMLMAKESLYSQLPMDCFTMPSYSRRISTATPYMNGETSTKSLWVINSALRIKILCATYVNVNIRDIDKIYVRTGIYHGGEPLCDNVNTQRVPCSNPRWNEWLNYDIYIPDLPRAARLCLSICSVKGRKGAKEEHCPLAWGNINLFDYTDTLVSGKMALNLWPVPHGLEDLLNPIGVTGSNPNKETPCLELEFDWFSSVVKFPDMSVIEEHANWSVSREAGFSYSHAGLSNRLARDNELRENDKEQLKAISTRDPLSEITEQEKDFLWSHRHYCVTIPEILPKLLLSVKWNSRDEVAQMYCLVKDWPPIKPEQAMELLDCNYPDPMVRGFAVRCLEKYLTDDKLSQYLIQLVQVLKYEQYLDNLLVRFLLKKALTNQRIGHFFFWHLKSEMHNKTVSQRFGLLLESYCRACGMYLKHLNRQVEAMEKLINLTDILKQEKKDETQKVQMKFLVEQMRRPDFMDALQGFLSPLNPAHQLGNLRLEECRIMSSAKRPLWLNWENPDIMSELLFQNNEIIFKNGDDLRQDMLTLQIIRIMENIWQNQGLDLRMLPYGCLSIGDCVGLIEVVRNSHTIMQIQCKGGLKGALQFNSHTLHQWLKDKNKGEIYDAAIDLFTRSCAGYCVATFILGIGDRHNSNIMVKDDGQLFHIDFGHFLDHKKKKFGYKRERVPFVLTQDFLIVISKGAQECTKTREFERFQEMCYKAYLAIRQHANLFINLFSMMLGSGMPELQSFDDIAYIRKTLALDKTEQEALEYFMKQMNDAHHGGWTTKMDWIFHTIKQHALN
Assay: Enzyme Assay
Assignment: determine reported IC50 for the given molecules.
Give the value, in units of nM, as a plain number.

Enquiry: Which value of IC50 has been reported for `COCCOc1cc(-c2ccc3ncc4c(c3c2)n(-c2cccc(C(F)(F)F)c2)c(=O)n4C)cnc1C` in the records?
Return: 40

Enquiry: Which value of IC50 has been reported for `COC(=O)Nc1ccc(-c2ccc3ncc4c(c3c2)n(-c2cccc(F)c2Cl)c(=O)n4C)cn1` in the records?
Return: 16

Enquiry: Which value of IC50 has been reported for `COC(=O)Nc1ccc(-c2ccc3ncc4c(c3c2)n(-c2ccc(F)c(C(F)(F)F)c2)c(=O)n4C)cn1` in the records?
Return: 25

Enquiry: Which value of IC50 has been reported for `COCC(=O)Nc1ccc(-c2ccc3ncc4c(c3c2)n(-c2ccc(F)c(C(F)(F)F)c2)c(=O)n4C)cn1` in the records?
Return: 90

Enquiry: Which value of IC50 has been reported for `Cn1c(=O)n(-c2ccc(C(C)(C)C#N)cc2)c2c3cc(-c4cncc(OCC(F)(F)F)c4)ccc3ncc21` in the records?
Return: 19

Enquiry: Which value of IC50 has been reported for `Cc1ncc(-c2ccc3ncc4c(c3c2)n(-c2cccc(F)c2C)c(=O)n4C)cc1OCCF` in the records?
Return: 21

Enquiry: Which value of IC50 has been reported for `COCC(=O)Nc1ccc(-c2ccc3ncc4c(c3c2)n(-c2cccc(C(F)(F)F)c2)c(=O)n4C)cn1` in the records?
Return: 32

Enquiry: Which value of IC50 has been reported for `CNC(=O)Nc1ccc(-c2ccc3ncc4c(c3c2)n(-c2c(C)cccc2C)c(=O)n4C)cn1` in the records?
Return: 107
